All figures here come from ChEMBL document CHEMBL3994637.

Test system: Staphylococcus aureus
procedure_summary: Antibacterial activity against methicillin-resistant Staphylococcus aureus ATCC 700699 by broth microdilution method
Type: functional
condition_label: Mu50
log10(IC50) values by entry
reported_metric: log10(IC50) (log10 of the value in µg/mL)

1. CC(Cn1sc2ccccc2c1=O)n1sc2ccccc2c1=O (stereo unspecified): 0.18
2. COC(=O)[C@H](CC(C)C)n1sc2ccccc2c1=O: 0.32
3. COC(=O)[C@H](C)NC(=O)[C@H](C)n1sc2ccccc2c1=O: 0.56
4. CC[C@H](C)[C@@H](C(=O)OC)n1sc2ccccc2c1=O: -0.37
5. O=c1c2ccccc2sn1C1CCCCC1n1sc2ccccc2c1=O (stereo unspecified): 0.15
6. CC(C)Cn1sc2ccccc2c1=O: 0.67
7. COC(=O)[C@H](C(C)C)n1sc2ccccc2c1=O: -0.09
8. O=c1c2ccccc2sn1C1CCCCC1: 0.00
9. O=c1c2ccccc2sn1Cc1ccc2c(c1)OCO2: -0.22
